Tested on: CAL-148 (Breast Carcinoma);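 note: after 72 h of two-drug dosing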
Assay: Bliss excess, mean over the matrix (fraction); higher = more synergy
Reported Bliss excess values follow for various compounds

COMPOUND	Bliss excess
Cc1c2c(nn1C)CSCc1cc(n(C)n1)CSc1cc(c3ccccc3c1)OCCCc1c(C(=O)O)n(C)c3c-2c(Cl)ccc13 [AZD5991] + CCN(CCO)CCCOc1ccc2c(Nc3cc(CC(=O)Nc4cccc(F)c4)[nH]n3)ncnc2c1 [AZD2811] (first compound max 1 µM, 7x7, partner max 1 µM)	0.0597
N#Cc1cnc(Nc2cc(NC[C@H]3CNCCO3)c(C(F)(F)F)cn2)cn1 [SRA737] + O=c1[nH]cc(F)c(=O)[nH]1 [5-Fluorouracil] (first compound max 10 µM, 7x7, partner max 20 µM)	0.0099
CC(=O)Nc1cccc(-n2c(=O)n(C3CC3)c(=O)c3c(Nc4ccc(I)cc4F)n(C)c(=O)c(C)c32)c1 [Trametinib] + Cc1nc(-c2cn3c(n2)-c2ccc(-c4cnn(C(C)(C)C(N)=O)c4)cc2OCC3)n(C(C)C)n1 [Taselisib] (first compound max 1 µM, 7x7, partner max 10 µM)	0.0554
COc1cc2c(cc1OCCCCCOc1cc3c(cc1OC)C(=O)N1C=C(C)C[C@H]1C=N3)N=C[C@@H]1CC(C)=CN1C2=O [SG3199] + O=C(c1cc(Cc2n[nH]c(=O)c3ccccc23)ccc1F)N1CCN(C(=O)C2CC2)CC1 [Olaparib] (first compound max 0.001 µM, 7x7, partner max 10 µM)	-0.0294
C[C@@H](c1ccc2nccn2c1)n1nnc2ncc(-c3cnn(C)c3)nc21 [Savolitinib] + CC1(C)CCC(CN2CCN(c3ccc(C(=O)NS(=O)(=O)c4ccc(NCC5CCOCC5)c([N+](=O)[O-])c4)c(Oc4cnc5[nH]ccc5c4)c3)CC2)=C(c2ccc(Cl)cc2)C1 [Venetoclax] (first compound max 1 µM, 7x7, partner max 1 µM)	-0.0359
